Please respond with reported Tm for every item in the list.
assay: melting temperature; fluorescence melt of hairpins on a sequencing array, two-state fit, raised by 9.35 °C to match UV melts; settings: sodium 0.088 M
Answers are plain numbers, in °C.

Here is how some sequences turned out for Tm.
GATCTAATGATAGATC ((((((....))))))
36.2
GAGATGCCGAAAGGCCTC (((..(((....))))))
32.1
GGCAATCCGAAAGGAGCC (((..(((....))))))
46.9

Hey, can you go through the list below and give me Tm for every item?
1. GCCGAGCGAAAGCTCTGC ((.((((....)))).))
2. GGGACCGAAAGGTACCCC ((((((....)))..)))

58.7
61.3

* * *

test: folding enthalpy; higher = less favourable; fluorescence melt of hairpins on a sequencing array, two-state fit; conditions: sodium 0.088 M
Parameter threshold = -30 kcal/mol. Response is T when folding enthalpy meets or exceeds it, else F.

Some solved cases for reference:
GTAGCCCGAAAGGGATAC (((.(((....))).)))
F
GATCTACTAATAGATC ((((((....))))))
T
GATCAGCTTACTGATC ((((((....))))))
F
GCGCCGCGAAAGCAGAGC ((.(.((....)).).))
T
GGCGGCGAAAGCCTGGCC ((((((....)))..)))
T
GAACCCCGAAAGGGTTTC (((.(((....))).)))
T

Dear colleague, could you confirm whether GTACATGAAAATGTAC ((((((....)))))) has folding enthalpy at or above -30 kcal/mol? F

Dear colleague, could you confirm whether GCGAGGAATCGC ((((....)))) has folding enthalpy at or above -30 kcal/mol? T

Dear colleague, could you confirm whether GATCGCACCGCGATC ((((((...)))))) has folding enthalpy at or above -30 kcal/mol? F

Dear colleague, could you confirm whether GTAACCGAAAGGTTAC ((((((....)))))) has folding enthalpy at or above -30 kcal/mol? T

Dear colleague, could you confirm whether GGGGCCGAAAGGCAACCC ((((((....)))..))) has folding enthalpy at or above -30 kcal/mol? T

Dear colleague, could you confirm whether GTCACCCGAAAGGGCGAC (((.(((....))).))) has folding enthalpy at or above -30 kcal/mol? F

Dear colleague, could you confirm whether GATCACGTACGTGATC ((((((....)))))) has folding enthalpy at or above -30 kcal/mol? F

Dear colleague, could you confirm whether GTCGAAGCGAAAGCTGAC (((..(((....)))))) has folding enthalpy at or above -30 kcal/mol? T

* * *

assay: melting temperature; fluorescence melt of hairpins on a sequencing array, two-state fit, raised by 9.35 °C to match UV melts; details: sodium 0.088 M
Please respond with reported Tm for every item in the list.
Give bare numbers, in °C.

Here is how some sequences turned out for Tm.
GACAATGGAAACATTGCC (.(((((....))))).)
38.2
GCGTCAGGAAACTGGCGC (((.(((....))).)))
63
GCGGACGGAAACATCCGC (((((.(....).)))))
52.9
GTATTACGAAAGTAGTAC (((.(((....))).)))
41.3

Hey, can you go through the list below and give me Tm for every item?
1. GCGAGGCGAAAGCAACGC (((..((....))..)))
2. GATCAGAGTGCTGATC ((((((....))))))

1. 61.8
2. 50.2
